A collection of molecules and their measured cell viability
Tested on: Calu-3
Experiment: cell viability relative to DMSO; higher = less toxic
Settings: 72 h; 10 nM

molecule: CCCC[C@H]1C(=O)N(c2ccccc2)N(c2ccc(O)cc2)C1=O [oxyphenbutazone]
assayed-target: Calu-3
cell viability: 104%

molecule: CC[C@]1(O)C[C@@H]2CN(CCc3c([nH]c4ccccc34)[C@@](C(=O)OC)(c3cc4c(cc3OC)N(C)[C@H]3[C@@](O)(C(N)=O)[C@H](O)[C@]5(CC)C=CCN6CC[C@]43[C@@H]65)C2)C1 [vindesine]
assayed-target: Calu-3
cell viability: 70.6%

molecule: O=C(C=Cc1ccccc1)NC(NC(=S)Nc1ccc(Cl)cc1)C(Cl)(Cl)Cl (centres undefined) [sal003]
assayed-target: Calu-3
cell viability: 99.8%

molecule: CO[C@H](C(=O)[C@@H](O)[C@@H](C)O)[C@@H]1Cc2cc3cc(O[C@H]4C[C@@H](O[C@H]5C[C@@H](O)[C@H](O)[C@@H](C)O5)[C@@H](O)[C@@H](C)O4)c(C)c(O)c3c(O)c2C(=O)[C@H]1O[C@H]1C[C@@H](O[C@H]2C[C@@H](O[C@H]3C[C@](C)(O)[C@H](O)[C@@H](C)O3)[C@H](O)[C@@H](C)O2)[C@H](O)[C@@H](C)O1 [plicamycin]
assayed-target: Calu-3
cell viability: 88.4%

molecule: COC(=O)CC[C@@H]1N=C(c2ccccn2)c2cc(Br)ccc2-n2c(C)cnc21 [remimazolam]
assayed-target: Calu-3
cell viability: 94.1%

molecule: CC(C)c1ccc(C(=O)N=C(N)N)cc1S(C)(=O)=O [cariporide]
assayed-target: Calu-3
cell viability: 96.7%

molecule: CNC(=O)[C@@H](NC(=O)[C@H](CC(C)C)[C@H](O)C(=O)NO)C(C)(C)C [marimastat]
assayed-target: Calu-3
cell viability: 102%

molecule: Cc1noc(-c2ccc(-c3ccc(CC(=O)O)cc3)cc2)c1NC(=O)O[C@H](C)c1ccccc1 [AM095]
assayed-target: Calu-3
cell viability: 95.7%

molecule: COc1ccc(CCN(C)CCc2ccc(OC)c(OC)c2)cc1OC [YS-035]
assayed-target: Calu-3
cell viability: 106%

molecule: Nc1ccccc1NC(=O)c1ccc(CNc2nccc(-c3cccnc3)n2)cc1 [mocetinostat]
assayed-target: Calu-3
cell viability: 89.6%

molecule: COC(=O)[C@@H](N)CCCNC(=N)N[N+](=O)[O-] [L-NAME]
assayed-target: Calu-3
cell viability: 106%

molecule: CC(C)C[C@H](NC(=O)CNC(=O)c1cc(Cl)ccc1Cl)B1OC(=O)C(CC(=O)O)(CC(=O)O)O1 [ixazomib-citrate]
assayed-target: Calu-3
cell viability: 103%

molecule: CSCC[C@H](NC(=O)[C@H](CC(C)C)NC(=O)[C@@H](Cc1c[nH]c2ccccc12)NC(=O)[C@H](Cc1ccccc1)N(C)C(=O)[C@@H](Cc1c[nH]c2ccccc12)NC(=O)[C@@H](N)CCCNC(=N)N)C(N)=O [antagonist-g]
assayed-target: Calu-3
cell viability: 91%

molecule: CCN(C(C)=O)c1cccc(-c2ccnc3c(C#N)cnn23)c1 [ZALEPLON]
assayed-target: Calu-3
cell viability: 96.7%

###

A collection of compounds and their measured cell viability
Test system: Caco-2
Test: cell viability relative to DMSO; higher = less toxic
Settings: 72 h; 100 nM

compound: CO[C@H](C(=O)[C@@H](O)[C@@H](C)O)[C@@H]1Cc2cc3cc(O[C@H]4C[C@@H](O[C@H]5C[C@@H](O)[C@H](O)[C@@H](C)O5)[C@@H](O)[C@@H](C)O4)c(C)c(O)c3c(O)c2C(=O)[C@H]1O[C@H]1C[C@@H](O[C@H]2C[C@@H](O[C@H]3C[C@](C)(O)[C@H](O)[C@@H](C)O3)[C@H](O)[C@@H](C)O2)[C@H](O)[C@@H](C)O1
unit-string: %
cell viability: 42.4

compound: C[C@@H]1C[C@H]2[C@@H]3CCC4=CC(=O)C=C[C@]4(C)[C@@]3(Cl)[C@@H](O)C[C@]2(C)[C@@]1(OC(=O)c1ccco1)C(=O)CCl [MOMETASONE FUROATE]
unit-string: %
cell viability: 85.6

compound: CCCCC/C=C\C/C=C\C/C=C\C/C=C\CCCC(=O)Nc1ccc(O)cc1
unit-string: %
cell viability: 103

compound: CN(C)C(=O)C(=O)c1cn(C)c2cc(Cl)c(C(=O)N3CCC(Cc4ccc(F)cc4)CC3)cc12
unit-string: %
cell viability: 98.3

compound: COCC[n+]1c2c(n(Cc3cnccn3)c1C)C(=O)c1ccccc1C2=O
unit-string: %
cell viability: 3.8

###

System: Calu-3
Assay: cell viability relative to DMSO; higher = less toxic
Details: 72 h; 1000 nM
A collection of compounds and their measured cell viability

given-smiles: CSCC[C@H](NC(=O)[C@H](CC(C)C)NC(=O)[C@@H](Cc1c[nH]c2ccccc12)NC(=O)[C@H](Cc1ccccc1)N(C)C(=O)[C@@H](Cc1c[nH]c2ccccc12)NC(=O)[C@@H](N)CCCNC(=N)N)C(N)=O
assayed-target: Calu-3
cell viability (%): 89.3
//
given-smiles: CCN(C(C)=O)c1cccc(-c2ccnc3c(C#N)cnn23)c1
assayed-target: Calu-3
cell viability (%): 86.1
//
given-smiles: FC(F)(F)c1ccc(CNc2ccc(Cc3c[nH]c4ncc(Cl)cc34)cn2)cn1
assayed-target: Calu-3
cell viability (%): 102

###

A collection of compounds and their measured cell viability
Tested on: Calu-3
Test: cell viability relative to DMSO; higher = less toxic
Details: 72 h; 1 nM
recorded-endpoint: cell viability (%)

compound: CC1C(=O)OC2C(O)C34C5CC(C(C)(C)C)C36C(OC(=O)C6O)OC4(C(=O)O5)C12O (centres undefined) [ginkgolide-B]
observed-measurement: 106
//
compound: NC(=O)c1ncn([C@@H]2O[C@H](CO)[C@@H](O)[C@H]2O)n1
observed-measurement: 104
//
compound: CCCCCCCCCCCCCC(=O)OC(C)C [isopropyl-myristate]
observed-measurement: 98.3
//
compound: [N-]=[N+]=CC(=O)CC[C@H](N)C(=O)O
observed-measurement: 102
//
compound: Cc1ccc2nc(N)[nH]c(=O)c2c1Sc1ccncc1
observed-measurement: 97.9
//
compound: CCCCCCCCCC(=O)OCCN1CCN(CCCN2c3ccccc3Sc3ccc(C(F)(F)F)cc32)CC1 [fluphenazine-decanoate]
observed-measurement: 101
//
compound: O=C(Nc1ccccc1C(=O)NC1CCCCNC1=O)c1cc2ccccc2s1 (centres undefined)
observed-measurement: 99.6
//
compound: Cc1ccccc1NC(=N)Nc1ccccc1C
observed-measurement: 103
//
compound: N[C@@H](Cc1ccc(O)cc1)C(=O)O [plovamer-acetate]
observed-measurement: 97.9

###

Test system: Vero E6
Experiment: cell viability relative to DMSO; higher = less toxic
Settings: 72 h; 1000 nM
recorded-endpoint: cell viability (%)

molecule: NC(N)=O [urea]
observed-measurement: 92.3
--
molecule: CCCC1(CCC)CCC2(CCN(CCCN(CC)CC)C2)CC1 [atiprimod]
observed-measurement: 92.1
--
molecule: C=CCN1CCN(c2nc3ccccc3nc2C#N)CC1 [3-AQC]
observed-measurement: 104
--
molecule: Cc1c(Cl)cccc1S(=O)(=O)Nc1nc(NCCc2ccccc2)nc2c1CN(Cc1ccccc1)CC2 [CaMKII-IN-1]
observed-measurement: 97.7
--
molecule: C[C@H](Cc1ccc2c(c1)OC(C(=O)O)(C(=O)O)O2)NC[C@H](O)c1cccc(Cl)c1
observed-measurement: 96.4
--
molecule: COc1cc([C@@H]2c3cc4c(cc3[C@@H](O[C@@H]3O[C@@H]5CO[C@@H](C)O[C@H]5[C@H](O)[C@H]3O)[C@H]3COC(=O)[C@H]23)OCO4)cc(OC)c1O [etoposide]
observed-measurement: 98.7
--
molecule: O=C(Nc1ccc(N2CCC(C(=O)N3CCOCC3)CC2)cc1)c1cnc(Oc2ccccc2)nc1 [TFC-007]
observed-measurement: 95
--
molecule: N[C@@H](CSC(c1ccccc1)(c1ccccc1)c1ccccc1)C(=O)O [S-trityl-L-cysteine]
observed-measurement: 99.2
--
molecule: Cc1cc(Oc2ccc3nc(COc4ccc(CC5SC(=O)NC5=O)cc4)n(C)c3c2)cc(C)c1N (stereo unspecified) [efatutazone]
observed-measurement: 87.1
--
molecule: Nc1ccccc1NC(=O)c1ccc(CNc2nccc(-c3cccnc3)n2)cc1 [mocetinostat]
observed-measurement: 43.4
--
molecule: COc1cc(NS(=O)(=O)c2ccc(N)cc2)ncn1 [sulfamonomethoxine]
observed-measurement: 104
--
molecule: CC(=O)N[C@H]1[C@H]([C@H](O)[C@H](O)CO)OC(C(=O)O)=C[C@@H]1NC(=N)N [zanamivir]
observed-measurement: 98.7
--
molecule: COc1cc(CNC(=O)CCCC/C=C/C(C)C)ccc1O [capsaicin]
observed-measurement: 107
--
molecule: Nc1nc(N)nc(NC2CC2)n1 [cyromazine]
observed-measurement: 99.1
--
molecule: COc1ccccc1N1CCN(CCCNc2cc(=O)n(C)c(=O)n2C)CC1 [urapidil]
observed-measurement: 98.6
--
molecule: O=C(Cc1ccc(Cl)c(Cl)c1)N1CCCC[C@@H]1CN1CCCC1
observed-measurement: 105
--
molecule: Oc1cc(O)cc(/C=C/c2ccc(O)c(O)c2)c1 [piceatannol]
observed-measurement: 92.1
--
molecule: Nc1nc(N)c2nc(-c3cccc(O)c3)cnc2n1
observed-measurement: 98.4
--
molecule: C[C@@H]1C[C@H]2[C@@H]3C[C@H](F)C4=CC(=O)C=C[C@]4(C)[C@@]3(F)[C@@H](O)C[C@]2(C)[C@@]1(O)C(=O)CO [flumethasone]
observed-measurement: 105
--
molecule: CNC(=O)c1ccc(C)c(-n2c(C)cc(OCc3ccc(F)cc3F)c(Br)c2=O)c1
observed-measurement: 82.3
--
molecule: OCc1ccc(-c2nn(Cc3ccccc3)c3ccccc23)o1 [YC-1]
observed-measurement: 104
--
molecule: CC(C)NCC(O)c1ccc([N+](=O)[O-])cc1 (stereo unspecified) [nifenalol]
observed-measurement: 93.3
--
molecule: CC(C)=CCC[C@](C)(O)[C@H]1CC[C@]2(C)[C@@H]1[C@H](O)C[C@@H]1[C@@]3(C)CC[C@H](O)C(C)(C)[C@@H]3CC[C@]12C [S-111]
observed-measurement: 105
--
molecule: CN=c1nc(-c2ccccc2)n(-c2ccccc2)s1
observed-measurement: 101
--
molecule: CNC(=O)[C@@H](NC(=O)[C@H](CC(C)C)[C@H](O)C(=O)NO)C(C)(C)C [marimastat]
observed-measurement: 104
--
molecule: COc1nccc(-c2c(-c3ccc(F)cc3)ncn2C2CCNCC2)n1
observed-measurement: 83.6
--
molecule: CC(C)C[C@H](NC(=O)CNC(=O)c1cc(Cl)ccc1Cl)B1OC(=O)C(CC(=O)O)(CC(=O)O)O1 [ixazomib-citrate]
observed-measurement: 11.5
--
molecule: CCCCCCCCCC(=O)OCCN1CCN(CCCN2c3ccccc3Sc3ccc(C(F)(F)F)cc32)CC1 [fluphenazine-decanoate]
observed-measurement: 106
--
molecule: CN(C)C(=O)C(=O)c1cn(C)c2cc(Cl)c(C(=O)N3CCC(Cc4ccc(F)cc4)CC3)cc12 [SX-011]
observed-measurement: 93.2
--
molecule: NC(=O)c1ncn([C@@H]2O[C@H](CO)[C@@H](O)[C@H]2O)n1 [ribavirin]
observed-measurement: 104
--
molecule: Cn1c(=O)c2[nH]cnc2n(C)c1=O [aminophylline]
observed-measurement: 93.1
--
molecule: NCCC(=O)N[C@@H](Cc1c[nH]cn1)C(=O)O [carnosine]
observed-measurement: 95.5
--
molecule: CC(C)(O)CS(=O)(=O)Nc1ccc2c(c1)CCN(C(=O)COc1cccnc1)C2 [Nampt-IN-1]
observed-measurement: 3.3
--
molecule: CCS(=O)(=O)CCn1c([N+](=O)[O-])cnc1C [tinidazole]
observed-measurement: 97.6
--
molecule: OCCn1cc(-c2cnc3nnn(Cc4ccc5ncccc5c4)c3n2)cn1
observed-measurement: 97.7
--
molecule: CCCCCC(C)N (stereo unspecified) [tuaminoheptane]
observed-measurement: 95
